Cited source for all entries: patent US8778951B2

- Assayed target: Cdk9/cyclinT1 (Homo sapiens (Human))
- Sequence (P50750 whole entry): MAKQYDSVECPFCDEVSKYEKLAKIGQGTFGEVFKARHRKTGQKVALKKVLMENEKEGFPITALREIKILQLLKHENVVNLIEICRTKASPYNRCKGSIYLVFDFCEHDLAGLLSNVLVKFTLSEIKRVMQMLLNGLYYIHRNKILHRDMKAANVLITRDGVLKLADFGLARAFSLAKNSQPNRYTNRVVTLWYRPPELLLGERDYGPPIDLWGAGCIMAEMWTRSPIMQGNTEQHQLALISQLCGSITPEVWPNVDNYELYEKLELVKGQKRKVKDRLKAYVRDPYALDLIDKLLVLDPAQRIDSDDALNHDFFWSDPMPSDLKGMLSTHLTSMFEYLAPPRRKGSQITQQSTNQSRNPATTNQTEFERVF
- Sequence (O60563 whole entry partner): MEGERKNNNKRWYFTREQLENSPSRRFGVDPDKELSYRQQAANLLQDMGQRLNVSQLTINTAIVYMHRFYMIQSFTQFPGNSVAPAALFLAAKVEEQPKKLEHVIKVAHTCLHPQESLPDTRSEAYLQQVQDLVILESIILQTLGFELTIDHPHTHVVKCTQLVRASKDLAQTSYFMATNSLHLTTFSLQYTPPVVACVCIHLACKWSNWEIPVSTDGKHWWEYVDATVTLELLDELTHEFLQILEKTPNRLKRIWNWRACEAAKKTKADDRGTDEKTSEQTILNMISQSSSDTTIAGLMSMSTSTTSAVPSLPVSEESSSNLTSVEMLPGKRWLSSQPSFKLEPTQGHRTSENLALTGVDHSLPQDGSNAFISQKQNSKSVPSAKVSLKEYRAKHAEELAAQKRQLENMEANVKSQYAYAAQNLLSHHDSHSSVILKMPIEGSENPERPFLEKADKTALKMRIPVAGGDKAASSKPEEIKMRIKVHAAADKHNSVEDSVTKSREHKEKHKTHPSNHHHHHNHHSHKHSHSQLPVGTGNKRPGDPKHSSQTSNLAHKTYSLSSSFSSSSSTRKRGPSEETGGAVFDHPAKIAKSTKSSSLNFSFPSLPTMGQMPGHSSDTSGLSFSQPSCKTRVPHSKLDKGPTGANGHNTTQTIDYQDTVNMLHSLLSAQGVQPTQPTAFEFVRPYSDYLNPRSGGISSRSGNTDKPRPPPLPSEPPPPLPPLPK
- Method summary: Cdk9/CyclinT1 IMAP Protocol (fluorescence polarization kinase assay)
- Run parameters: Table 2; generated using one of the two Cdk9/cyclinT1 assays (IMAP or Alpha Screen), not specified which; unit inferred
- Protocol: Cdk9/CyclinT1 IMAP Protocol The biological activity of the compounds of the invention can be determined using the assay described below. Cdk9/cyclinT1 is purchased from Millipore, cat #14-685. The final total protein concentration in the assay 4 nM. […] Fluorescence polarization (FP) is used for detection. […] The binding of the IMAP Progressive Binding Reagent changes the fluorescence polarization of the 5TAMRA-cdk7tide peptide which is measured at an excitation of 531 nm and FP emission of 595 nm. […]
pIC50: −log10 of the molar value.
Reported endpoint: pIC50

CN1CCC(CNc2cc(-c3cccc(NCc4cccc(F)c4)n3)c(Cl)cn2)CC1 = 7.89
O[C@H]1CC[C@H](Nc2cc(-c3cccc(NCC4CCCCC4)n3)c(Cl)cn2)CC1 = 7.84
Clc1cnc(N[C@H]2CC[C@H](NC[C@@H]3CCCO3)CC2)cc1-c1cccc(NCC2CCOCC2)n1 = 8.10
COC[C@@H](C)N[C@H]1CC[C@H](Nc2cc(-c3cccc(NCC4(OC)CCCCC4)n3)c(Cl)cn2)CC1 = 8.05
O[C@H]1CC[C@H](Nc2cc(-c3cnc(Cl)c(NCC4CCOCC4)n3)c(Cl)cn2)CC1 = 8.10

P: O[C@H]1CC[C@H](Nc2cc(-c3cncc(NC[C@H]4CCCOC4)n3)c(Cl)cn2)CC1
Q: OC[C@H]1CC[C@H](Nc2cc(-c3cncc(NCC4CCOCC4)n3)c(Cl)cn2)CC1
Inquiry: Between these two entries, P and Q , state which has the higher pIC50. # answer = label of selected item
Reply text: P
